experiment: Human HepG2 cell viability assay in 384 well format; type: toxicity, cell-based; design: dose 125 nL, time 70.5 hour; concentration not given beside the values; conditions: HepG2 cells, read-out: Inhibition
result type: cytotoxicity at 70.5 h (%)

                                    compound  value_observed
 0          CN(Cc1ccccc1OC(F)(F)F)C(=O)C1CC1           -7.05
 1  CN1CCN(C(=O)N2CCCC(c3nccn3CC3CCC3)C2)CC1 (configuration not stated)           -15.8
 2  CCc1ccc(O)c(C(=O)NC2CCN(Cc3ccncc3)CC2)c1            17.7
 3  Cc1nc2cc(=O)[nH]n2c(C)c1CNC(=O)C(C)(C)c1ccccc1           -1.88
 4  CN(C(=O)NCCCNc1ccccn1)C1CCS(=O)(=O)C1 (configuration not stated)           -10.6
 5  CC/C=C(\C)CN1CCC(CNC(=O)c2ccc(=O)[nH]c2)CC1           -6.38
 6             CCc1cnc(N)nc1N(C)CCc1cnn(C)c1            45.7
 7  COc1nccnc1-c1cccc(-c2ccn(CC3COCCO3)n2)c1 (configuration not stated)           -6.47
 8  COc1ncc(NS(=O)(=O)c2ccc(F)c(F)c2)c(OC)n1           -1.82
 9  Cc1noc(C)c1CN1CCCC2(CCN(C(=O)NC3CC3)C2)C1 (configuration not stated)            1.02
10  COCCN1CCO[C@@H]2CN(Cc3cc(OC)cc(OC)c3)C[C@@H]2C1            36.9
11  Cc1cnc(C(=O)N2C[C@H](N3CCOCC3)[C@@H]3OCCC[C@@H]32)cn1           -13.1
12  O=C(CN1CCC(c2ccccc2)C1)NC(=O)NCC(F)(F)F (configuration not stated)            21.4
13  Cc1cc(NC(C)C(=O)NCc2ccccc2)nc(-c2ccncc2)n1 (configuration not stated)           -13.1
14      Cc1noc(C)c1CC(=O)OCc1nc(N)c2ccccc2n1              -3
15  CC(Nc1cccc(CN2CCOC2=O)c1)C(=O)Nc1ccccc1 (configuration not stated)           -22.1
16  CCc1cnc(N2CCCC(CCC(N)=O)C2)nc1 (configuration not stated)            17.3
17  Cc1ccccc1CN1CCC[C@H]1c1nc(-c2cncnc2N)no1           -3.84
18  COCCN1C[C@@H]2[C@@H](OC)CCN(C(=O)Cc3ccsc3)[C@@H]2C1           -8.01
19  COc1cccc(CC(=O)N2CCC3(CC2)OCCCC3O)c1OC (configuration not stated)            -7.1
20   CC(C)NC(=O)CCNC(=O)Nc1cccc(-c2nccn2C)c1           -2.81
21  COCC1c2nnn(CC3CC3)c2CCN1C(=O)c1sccc1C (configuration not stated)           -11.5
22  CN(Cc1ccccc1CNC(=O)C1CNC(=O)N1)C1CCCCC1 (configuration not stated)           -4.23
23  Cc1ccc(C2(O)CCN(C(=O)Cn3cc(C)c(=O)[nH]c3=O)CC2)nc1           -7.28
24  CN(Cc1c(F)cccc1Cl)C(=O)c1cnn(CCN2CCCCC2)c1            18.7
25  CCC(C(=O)N(C)Cc1cc(C2CC2)[nH]n1)n1cccn1 (configuration not stated)           -5.95
26           CC(C)N1CCC(NC(=O)NCc2ccccc2)CC1         -0.0959
27  Cc1ccc(-c2nc(CN3C[C@@H](C)NC[C@@H]3C)c(C)o2)s1           -11.5
28           COc1ccccc1OCCNS(=O)(=O)N1CCOCC1           -11.3
29  CCCC(C#N)NC(=O)CCCOc1cccc(F)c1 (configuration not stated)           -9.46
30  Cn1cc(CN2CCCC23CCN(c2nc4ccccc4s2)CC3)cn1           -4.41
31  COCCNC(=O)C1CN(Cc2cccc(C)n2)Cc2ccnn2C1 (configuration not stated)            -5.1
32  COc1ccc(C(C)NCCC(N)=O)cc1F (configuration not stated)            1.06
33            CN(C)c1cc(CNC(=O)c2cnccn2)ccn1           -8.01
34  CCCNC(=O)C(C)N1CCC(C(=O)Nc2cnn(CC)c2)CC1 (configuration not stated)           -4.58
35  Cc1cccc(CN2CCC(C3Nc4ccccc4S(=O)(=O)N3)CC2)n1 (configuration not stated)            -2.6
36  CS(=O)(=O)NC[C@]12COC[C@H]1CN(C(=O)c1ccncn1)C2            15.5
37  O=C(CN1CCCCC1Cn1cncn1)NC1CCN(C2CC2)CC1 (configuration not stated)            -1.8
38  O=C(NCCO)c1sc2ncccc2c1C1CN(C2CCCC2)CCO1 (configuration not stated)           -3.18
39  Cc1cccc(OC2(C(=O)O)CCN(C(=O)CCc3ccco3)CC2)c1            30.3
40  CC(C)N1CCOC(c2cc(CCO)[nH]n2)C1 (configuration not stated)           -1.76
41  c1cc(CN2CCCCC2c2ccc(Nc3cnccn3)nc2)ccn1 (configuration not stated)           -4.05
42  CCn1ccnc1CN1CCC(N(Cc2ncc(C)o2)C(C)=O)C1 (configuration not stated)            4.91
43  O=C(c1cnn(-c2ccccc2)c1)N1CCN(c2cnccn2)CC1           -15.3
44  CC1(C)CC1C(=O)NS(=O)(=O)Cc1cc(-c2ccccc2)no1 (configuration not stated)           -1.85
45    N#Cc1cn(CCCN2CCc3ccccc32)c(=O)[nH]c1=O            21.5
46  CC(NS(C)(=O)=O)C(=O)N1CCCN(Cc2cscn2)CC1 (configuration not stated)           -1.86

Each recorded value in this set is attributed to ChEMBL document CHEMBL3507680.
